Would you mind telling me the reported inhibition of each entry?
experimental-system: Tyrosine-protein kinase receptor TYRO3 (Homo sapiens);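 note: reported percentages are averaged inhibition values of TYRO3 kinase activity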
measurement-setup: at 0.1 µM
Answers are plain numbers, in %.

// known answers, use as guide
{"columns": ["compound", "inhibition / %"],
 "data": [
  ["CN(c1ccc(NC(=O)Nc2c(Cl)cccc2Cl)cc1)c1ccnc(Nc2cccc(CS(C)(=O)=O)c2)n1", 4.61],
  ["CCS(=O)(=O)c1ccc(OC)c(Nc2ncc(-c3ccccc3Cl)o2)c1", 5.33],
  ["Fc1ccc(-c2c(-c3ccncc3)nc3n2CCS3)cc1", 1.94],
  ["NC(=O)c1cc(-c2ccncc2)cc(-c2ccccc2)c1N", 2.62],
  ["Fc1ccc(-c2ncn(CCCN3CCOCC3)c2-c2ccncc2)cc1", -0.71]
]}

Would you mind giving inhibition for every compound in the list below?
1. CS(=O)(=O)CCNCc1ccc(-c2ccc3ncnc(Nc4ccc(OCc5ccccc5)c(Br)c4)c3c2)o1
2. CN(C)c1ccc2c(c1)/C(=C/Nc1ccc(S(N)(=O)=O)cc1)C(=O)N2
3. COc1cccc(/C=N/Nc2ncnc3c2cnn3-c2cccc(OC)c2)c1
4. COc1ccc2cc(-c3c(-c4ccncc4)nc(-c4ccc([S+](C)[O-])cc4C)n3C)ccc2c1 (configuration not stated)

(A)
1. 2.52
2. 3.54
3. 3.49
4. 0.37

Answer for every listed entry: what is its inhibition? The entries follow.
1. Cc1ccc(C(=O)NC(C)C)cc1-c1ccc(C(=O)NCC2CC2)cc1
2. Nc1nccc(-c2c(-c3ccc(F)cc3)ncn2C2CCC(O)CC2)n1 (configuration not stated)
3. NC(=O)Cc1ccccc1Oc1nccc(-c2c(-c3ccc(F)cc3)ncn2C2CCNCC2)n1
4. COc1cc(N2CCN(C(C)C)CC2)ccc1Nc1nc(Nc2ccc(F)cc2C(=O)NC[C@@H](O)CO)c2cc[nH]c2n1

(A)
[-2.22, 0.62, 0.04, 2.87]

Your task in this section: give inhibition for each listed record.
1. CN1CCN(CCCNc2nc3ccc(Oc4ccc(NC(=O)Nc5cc(C(F)(F)F)ccc5F)cc4)cc3[nH]2)CC1
2. c1ccc(-c2n[nH]cc2-c2ccnc(-c3ccc(OCCN4CCOCC4)cc3)c2)nc1
3. COc1ccc(-c2ccc3c(NC(=O)C4CC4)n[nH]c3n2)cc1
4. COc1cc(C)c(N(C)C(=O)CN(C)C)cc1Nc1nc(Nc2cccc(F)c2C(N)=O)c2cc[nH]c2n1

(A)
1. 1.94
2. -0.18
3. 2.92
4. 1.86
